Target chain: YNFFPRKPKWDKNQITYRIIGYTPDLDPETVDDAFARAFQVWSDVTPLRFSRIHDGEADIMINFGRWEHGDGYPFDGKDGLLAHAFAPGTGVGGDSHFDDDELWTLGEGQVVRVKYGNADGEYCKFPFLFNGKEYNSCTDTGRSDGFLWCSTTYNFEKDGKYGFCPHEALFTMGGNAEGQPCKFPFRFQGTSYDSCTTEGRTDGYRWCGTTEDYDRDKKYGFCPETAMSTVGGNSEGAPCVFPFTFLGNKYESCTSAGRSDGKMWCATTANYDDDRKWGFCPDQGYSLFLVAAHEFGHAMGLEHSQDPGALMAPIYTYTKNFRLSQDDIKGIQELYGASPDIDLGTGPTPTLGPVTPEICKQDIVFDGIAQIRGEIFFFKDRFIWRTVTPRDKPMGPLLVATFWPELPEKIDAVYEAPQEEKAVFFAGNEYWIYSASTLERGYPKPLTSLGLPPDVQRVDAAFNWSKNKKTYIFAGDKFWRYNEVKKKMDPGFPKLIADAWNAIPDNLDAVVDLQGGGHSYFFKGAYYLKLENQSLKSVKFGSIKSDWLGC
readout-type: IC50 (µM)

| compound | unit-abbrev | quantitative-readout |
| --- | --- | --- |
| COC(=O)CN([C@@H](C(=O)NO)C(C)(C)C)S(=O)(=O)c1cccc(OC)c1 [Example 2-26] | µM | 8.75 |
| CC(C)CCN([C@@H](C(=O)NO)C(C)(C)C)S(=O)(=O)c1cccc(N)c1 [Example 2-28] | µM | 3.15 |
| CC(C)CCN([C@@H](C(=O)NO)C(C)(C)C)S(=O)(=O)c1cccc(NC(=O)NC(C)C)c1 [Example 2-34] | µM | 3.7 |

1 = COc1cccc(S(=O)(=O)N(CC(C)C)[C@@H](C(=O)NO)C(C)(C)C)c1 [Example 2-6]
2 = CC(C)CCN([C@@H](C(=O)NO)C(C)(C)C)S(=O)(=O)c1cccc(Cl)c1 [Example 2-4]
Compare 1 and 2 and name the one whose reported IC50 is smaller. To answer, give the label that identifies your chosen option.
2

====

measurement-target: MMP12 (Homo sapiens)
Sequence (P39900 106-470): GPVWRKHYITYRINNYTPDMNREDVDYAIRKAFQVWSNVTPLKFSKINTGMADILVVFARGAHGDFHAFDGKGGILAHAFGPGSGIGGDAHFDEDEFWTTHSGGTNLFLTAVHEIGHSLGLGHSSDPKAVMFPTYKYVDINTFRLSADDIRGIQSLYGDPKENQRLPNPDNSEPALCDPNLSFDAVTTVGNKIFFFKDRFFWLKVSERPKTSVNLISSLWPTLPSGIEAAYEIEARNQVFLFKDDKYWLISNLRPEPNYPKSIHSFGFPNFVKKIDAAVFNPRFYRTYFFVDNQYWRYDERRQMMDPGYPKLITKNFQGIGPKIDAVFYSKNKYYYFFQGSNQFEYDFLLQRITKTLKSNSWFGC
readout-type: IC50 (nM)

| compound | unit-abbrev | quantitative-readout |
| --- | --- | --- |
| CCCN([C@@H](C(=O)NO)C(C)(C)C)S(=O)(=O)c1cccc(C(=O)OC)c1 | nM | 400 |
| COc1cccc(S(=O)(=O)N(CC(C)C)[C@@H](C(=O)NO)C(C)(C)C)c1 | nM | 17.5 |
| CCNC(=O)Nc1cccc(S(=O)(=O)N(CCCN2CCCCC2)[C@@H](C(=O)NO)C(C)(C)C)c1 | nM | 1.5 |

1 = CC(C)CCN([C@@H](C(=O)NO)C(C)(C)C)S(=O)(=O)c1cccc(Cl)c1
2 = COc1cccc(S(=O)(=O)N(CC(=O)N(C)C)[C@@H](C(=O)NO)C(C)(C)C)c1
3 = COc1cccc(S(=O)(=O)N(Cc2ccccc2)[C@@H](C(=O)NO)C(C)(C)C)c1
In this exercise, place the 3 compounds in ascending sequence of their recorded IC50. Reply: labels, ordered per the request.
1, 3, 2
(1: 17.5 nM, 3: 145 nM, 2: 300 nM)

====

measurement-target: MMP09 (Homo sapiens)
Sequence (P14780 94-707): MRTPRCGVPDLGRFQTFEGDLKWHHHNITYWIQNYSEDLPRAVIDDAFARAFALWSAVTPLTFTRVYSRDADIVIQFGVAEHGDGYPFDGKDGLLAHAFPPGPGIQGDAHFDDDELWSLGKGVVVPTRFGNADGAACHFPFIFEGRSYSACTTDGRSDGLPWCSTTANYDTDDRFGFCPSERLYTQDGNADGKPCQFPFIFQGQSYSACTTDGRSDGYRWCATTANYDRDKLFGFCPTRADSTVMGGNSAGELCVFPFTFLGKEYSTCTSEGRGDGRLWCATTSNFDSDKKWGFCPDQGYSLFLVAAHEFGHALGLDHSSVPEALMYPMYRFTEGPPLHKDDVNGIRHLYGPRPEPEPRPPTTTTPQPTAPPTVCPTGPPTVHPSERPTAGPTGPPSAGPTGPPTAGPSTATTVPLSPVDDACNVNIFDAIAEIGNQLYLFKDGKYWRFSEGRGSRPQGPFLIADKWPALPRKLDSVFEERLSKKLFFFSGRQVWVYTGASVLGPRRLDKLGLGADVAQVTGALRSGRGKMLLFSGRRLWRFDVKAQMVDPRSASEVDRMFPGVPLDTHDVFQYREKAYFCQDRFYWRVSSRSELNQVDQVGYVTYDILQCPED
experimental-protocol: MMP assay, determination of IC50 (fluorescence)
Format: biochemical
assay-setup: human MMP 0.5 nM, substrate 5 μM, 1 hour preincubation, pH 7.5
readout-type: IC50 (µM)

| molecule | readout-type | quantitative-readout |
| --- | --- | --- |
| CC(C)CCN([C@@H](C(=O)NO)C(C)(C)C)S(=O)(=O)c1cccc(N)c1 [Example 2-28] | IC50 | 3.1 |

I = COC(=O)CN([C@@H](C(=O)NO)C(C)(C)C)S(=O)(=O)c1cccc(OC)c1 [Example 2-26]
II = CCNC(=O)Nc1cccc(S(=O)(=O)N(CCCN2CCCCC2)[C@@H](C(=O)NO)C(C)(C)C)c1 [Example 4-4]
From the recorded data, which exceeds the other in IC50: I or II ? Provide the label of your selected option as the answer.
I
(I: 3.7 µM, II: 0.9 µM)

====

Reported pIC50 for target or system MMP13 (Homo sapiens), by entry.
pIC50: −log10 of the molar value.
readout-type: pIC50

| compound | pIC50 |
| --- | --- |
| CC(=O)Nc1cccc(S(=O)(=O)N(CCC(C)C)[C@@H](C(=O)NO)C(C)(C)C)c1 | 5.94 |
| CC(C)CCN([C@@H](C(=O)NO)C(C)(C)C)S(=O)(=O)c1cccc(Cl)c1 | 7.02 |
| COc1cccc(S(=O)(=O)N(CC(C)C)[C@@H](C(=O)NO)C(C)(C)C)c1 | 6.60 |

A = CC(C)CCN([C@@H](C(=O)NO)C(C)(C)C)S(=O)(=O)c1cccc(N)c1
B = COc1cccc(S(=O)(=O)N(CCCc2cccnc2)[C@@H](C(=O)NO)C(C)(C)C)c1
Of the two listed items, A and B , which carries the larger pIC50 figure? // return label of chosen record
B
(B: 7.15, A: 5.81)
